Give pKi for every item shown.
# system tested: NA2009wt (recombinant neuraminidase) (Influenza A virus, UniProt C3W6G3)
# experiment: biochemical
# Type: biochemical, A/California/07/2009 (H1N1) influenza virus
Numbers only, as −log10 of the molar value.

Items follow; give pKi for each.
1. CCC(CC)O[C@@H]1C=C(C(=O)O)C[C@H](N[C@@H](C)C(=O)O)[C@H]1NC(C)=O [compound 8]
2. CCC(CC)O[C@@H]1C=C(P(=O)(O)O)C[C@H](N)[C@H]1NC(C)=O [compound 2, tamiphosphor, reference compound]
3. CCC(CC)O[C@@H]1C=C(C(=O)O)C[C@H](N[C@H](C)C(=O)O)[C@H]1NC(C)=O [compound 9]

1. 7.82
2. 7.59
3. 6.60
